- assayed target: PPIA (Homo sapiens)
- Construct: Full length PPIA (residues 1-165) with an N-terminal 6×his-yBBR-TEV tag; 6×his-yBBR-TEV (N); made in house; host or cells: E. coli BL21 (DE3) CodonPlus RIPL
- Sequence (P62937 whole entry, the tested form may be a part): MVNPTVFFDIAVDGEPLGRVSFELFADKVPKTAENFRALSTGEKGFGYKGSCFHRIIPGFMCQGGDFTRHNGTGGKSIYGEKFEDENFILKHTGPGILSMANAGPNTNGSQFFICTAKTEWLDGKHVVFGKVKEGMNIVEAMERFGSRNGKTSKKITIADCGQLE
- assay protocol: Phage Library Screening with NGS, PPIA
- Assay type: binding
- condition description: target concentration 100
Bridge positions count the residues as written; N and C are the ends.
measured quantity: phage screen counts, Target Concentration 100

(1) PNCHVEAYFCM
(2) PFCHIEAYYCW
(3) DPASYDCHVAAYFCNFA
(4) DPARAACHVAAYWCYHQ
# input Arrange these sequences by their phage screen counts, Target Concentration 100, starting with the largest number. I'd appreciate it if you listed the labels in the requested order.
# output 3, 1, 4, 2
(3: 176, 1: 8, 4: 3, 2: 0)

(I) PDCHVAAWMCF
(II) DPARTDCHVAAYWCYHQ
(III) PDCHIRAYVCH (Ac-PDCHIRAYVCH-NH2; bridge 3-10; also: Cys-Cys staple, linker not named)
(IV) DPARADCHVAAYWCYQQ
(V) DPARSDCHVAAYWCYHQ
# input Order the records, beginning with the lowest phage screen counts, Target Concentration 100 and ending with the highest. I'd appreciate it if you listed the labels in the requested order.
# output I, III, V, IV, II

* * *

- assayed target: CDK2 (Homo sapiens, UniProt P24941)
- assay protocol: Phage Library Screening with NGS, CDK2
- Type: binding
- Set-up: Full length CDK2 (residues 1-298) with an N-terminal GST-3C-6×his-TEV tag; GST-3C-6×his-TEV (N, cleaved yes); made in house; host or cells: Sf9 (Bac-to-Bac baculovirus)
- condition description: CDK2, target concentration 1000, second column
Numbered stars: 1 amine (or outer) side, 2 acyl side, 3 side chain; on linkers, the order of the positions; unused ones are H or OH. Bridge positions count the residues as written; N and C are the ends. Ends that are not written are not given here. Phenylene(1,4-NHCOCH2)2 = O=C(C[*:1])Nc1ccc(NC(=O)C[*:2])cc1
measured quantity: phage screen counts, Target Concentration 1000

(1) FECLDAFFSC (linker 3-10 via Phenylene(1,4-NHCOCH2)2 (inferred); not fully specified (N-terminus, C-terminus))
(2) PECLVAFFSCV (linker 3-10 via Phenylene(1,4-NHCOCH2)2 (inferred))
(3) DPAWWSCVIAAMECQDI (linker 7-14 via Phenylene(1,4-NHCOCH2)2 (inferred))
# input Arrange these sequences by their phage screen counts, Target Concentration 1000, starting with the largest number. I'd appreciate it if you listed the labels in the requested order.
# output 1, 2, 3
(1: 405, 2: 142, 3: 90)

* * *

- assayed target: CDK2 (Homo sapiens, UniProt P24941)
- assay protocol: Phage Library Screening with NGS, CDK2
- Assay type: binding
- Parameters: Full length CDK2 (residues 1-298) with an N-terminal GST-3C-6×his-TEV tag; GST-3C-6×his-TEV (N, cleaved yes); made in house; host or cells: Sf9 (Bac-to-Bac baculovirus)
- condition description: CDK2, target concentration 100
Numbered stars: 1 amine (or outer) side, 2 acyl side, 3 side chain; on linkers, the order of the positions; unused ones are H or OH. Bridge positions count the residues as written; N and C are the ends. Ends that are not written are not given here. Phenylene(1,4-NHCOCH2)2 = O=C(C[*:1])Nc1ccc(NC(=O)C[*:2])cc1
measured quantity: phage screen counts, Target Concentration 100

DPAWYECVVAAIECHAY (linker 7-14 via Phenylene(1,4-NHCOCH2)2 (inferred)) ... 0
WSCLSAYFSC (linker 3-10 via Phenylene(1,4-NHCOCH2)2 (inferred)) ... 0
DPAWWVCAIAAMDCHEQ (linker 7-14 via Phenylene(1,4-NHCOCH2)2 (inferred)) ... 0

(A) PCMDAFFSCVW (linker 2-9 via Phenylene(1,4-NHCOCH2)2 (inferred))
(B) DPAWWHCSIAALECHTT (linker 7-14 via Phenylene(1,4-NHCOCH2)2 (inferred))
(C) CLSAFFSCTY (linker 1-8 via Phenylene(1,4-NHCOCH2)2 (inferred); not fully specified (C-terminus))
(D) DPAWWRCVVAALDCVDY (linker 7-14 via Phenylene(1,4-NHCOCH2)2 (inferred))
(E) DPAWWTCIIAALECEEQ (linker 7-14 via Phenylene(1,4-NHCOCH2)2 (inferred))
# input Order the records, beginning with the lowest phage screen counts, Target Concentration 100 and ending with the highest. I'd appreciate it if you listed the labels in the requested order.
# output C, A, D, B, E

(a) CLSAFFMCSS (linker 1-8 via Phenylene(1,4-NHCOCH2)2 (inferred); not fully specified (C-terminus))
(b) DPAWYACIVAAVDCEHS (linker 7-14 via Phenylene(1,4-NHCOCH2)2 (inferred))
# input Compare the recorded phage screen counts, Target Concentration 100 of a and b ; state which is larger. Please reply using the label of the selected record.
# output b
(b: 8, a: 0)

(1) CLDAFFACER (linker 1-8 via Phenylene(1,4-NHCOCH2)2 (inferred); not fully specified (C-terminus))
(2) PECLVAFFSCV (linker 3-10 via Phenylene(1,4-NHCOCH2)2 (inferred))
# input For the pair 1 and 2 , which member has the lower phage screen counts, Target Concentration 100 number? Please reply using the label of the selected record.
# output 1
